Origin of measurements: the supplement of paper PMC12494721

# Test system: Ruminococcus gnavus DSM 108212
# test: growth (OD595) fold change vs plate DMSO controls (fold change (ratio)); higher = more growth
# experimental_parameters: incubation time: 27 h, anaerobic, 37 °C
Structures can show the parent of a compound that is named as a salt.
experimental_endpoint: growth

>>> obs_value("CCN(CC)CCOC(=O)C(Cc1cccc2ccccc12)CC1CCCO1 (stereo unspecified) [Nafronyl oxalate] (20 µM)")
1
>>> obs_value("CN1CCCN=C1/C=C/c1cccs1 [Pyrantel tartrate] (20 µM)")
1.04
>>> obs_value("CCOC(=O)Nc1ccc(NCc2ccc(F)cc2)nc1N [Flupirtine] (20 µM)")
0.999
>>> obs_value("CCCC(=O)Nc1ncnc2c1ncn2[C@@H]1O[C@@H]2COP(=O)(O)O[C@H]2[C@H]1OC(=O)CCC [Bucladesine sodium salt] (20 µM)")
0.964
>>> obs_value("Cc1c(Cl)cccc1Nc1ccccc1C(=O)O [Tolfenamic acid] (20 µM)")
1.14
>>> obs_value("CCC(C)(CN(C)C)OC(=O)c1ccccc1 (stereo unspecified) [Amyleine hydrochloride] (20 µM)")
0.997
>>> obs_value("OC(CCCN1CCCCC1)(c1ccccc1)c1ccccc1 [Diphenidol hydrochloride] (20 µM)")
1.26
>>> obs_value("CC1(C)OC(=O)NC1=O [Dimethadione] (20 µM)")
1.02
>>> obs_value("C[C@@H](O)[C@H]1C(=O)N2C(C(=O)O)=C(SCCNC=N)C[C@H]12 [Imipenem] (20 µM)")
0.0868
>>> obs_value("Cc1cc2c(cc1S(N)(=O)=O)S(=O)(=O)CCC2 [Meticrane] (20 µM)")
1.24
>>> obs_value("Nc1nc(CC(=O)Nc2ccc(CCNC[C@H](O)c3ccccc3)cc2)cs1 [Mirabegron] (20 µM)")
0.987
>>> obs_value("C[C@H]1C[C@@H]2[C@H]([C@@H](O)C[C@@]3(C)[C@H]2CC[C@]3(O)C(=O)CO)[C@@]2(C)C=CC(=O)C=C12 [Methylprednisolone, 6-alpha] (20 µM)")
0.836
>>> obs_value("Cc1[nH]c(=O)c(C#N)cc1-c1ccncc1 [Milrinone] (20 µM)")
0.92
>>> obs_value("N=C(N)NC(=N)NCCc1ccccc1 [Phenformin hydrochloride] (20 µM)")
0.756
>>> obs_value("CC(C)(Oc1ccc(C2CC2(Cl)Cl)cc1)C(=O)O (stereo unspecified) [Ciprofibrate] (20 µM)")
0.992
>>> obs_value("C[C@@H]1CCC[C@H](C)N1NC(=O)c1ccc(Cl)c(S(N)(=O)=O)c1 [Clopamide] (20 µM)")
1.04
>>> obs_value("CC(C)NCC(O)c1ccc(NS(C)(=O)=O)cc1 (stereo unspecified) [Sotalol hydrochloride] (20 µM)")
1.01
>>> obs_value("C#CCN(C)Cc1ccccc1 [Pargyline hydrochloride] (20 µM)")
0.999
>>> obs_value("N/C(=N\\C(=O)c1nc(Cl)c(N)nc1N)NCc1ccccc1 [Benzamil hydrochloride] (20 µM)")
0.861
>>> obs_value("Cn1c(=O)c2[nH]cnc2n(C)c1=O [Aminophylline] (20 µM)")
0.972
>>> obs_value("NNC(=O)c1ccncc1 [Isoniazid] (20 µM)")
0.727
>>> obs_value("O=C(O)CCC(=O)c1ccc(-c2ccccc2)cc1 [Fenbufen] (20 µM)")
0.921
>>> obs_value("CN(CCCCCCCCCCN(C)C(=O)Oc1cccc([N+](C)(C)C)c1)C(=O)Oc1cccc([N+](C)(C)C)c1 [Demecarium bromide] (20 µM)")
0.614
>>> obs_value("CN1C2CCCC1CC(NC(=O)c1nn(C)c3ccccc13)C2 (stereo unspecified) [Granisetron] (20 µM)")
1.04
>>> obs_value("OC(CCN1CCCCC1)(c1ccccc1)C1CCCCC1 (stereo unspecified) [Trihexyphenidyl-D,L hydrochloride] (20 µM)")
0.865
>>> obs_value("CC1=C(CC(=O)O)c2cc(F)ccc2/C1=C\\c1ccc([S+](C)[O-])cc1 (stereo unspecified) [Sulindac] (20 µM)")
1.3
>>> obs_value("CCCCN(CCCC)CCC(O)c1cc2c(Cl)cc(Cl)cc2c2cc(C(F)(F)F)ccc12 (stereo unspecified) [Halofantrine hydrochloride] (20 µM)")
1.16
>>> obs_value("CCN(CC)CCCC(C)Nc1c2ccc(Cl)cc2nc2ccc(OC)cc12 (stereo unspecified) [Quinacrine dihydrochloride hydrate] (20 µM)")
1.36
>>> obs_value("Cc1ccsc1C(=CCCN1CCC[C@@H](C(=O)O)C1)c1sccc1C [Tiagabine hydrochloride] (20 µM)")
1.01
>>> obs_value("CCOC(=O)[C@H](CCc1ccccc1)N[C@H]1CS[C@H](c2cccs2)CN(CC(=O)O)C1=O [Temocapril hydrochloride] (20 µM)")
1.05
>>> obs_value("NS(=O)(=O)c1cc2c(cc1Cl)N=CNS2(=O)=O [Chlorothiazide] (20 µM)")
0.966
